Provenance of the data: paper PMC6706627

Biological target: UniProt:Q8TDS5
Sequence (Q8TDS5 whole entry): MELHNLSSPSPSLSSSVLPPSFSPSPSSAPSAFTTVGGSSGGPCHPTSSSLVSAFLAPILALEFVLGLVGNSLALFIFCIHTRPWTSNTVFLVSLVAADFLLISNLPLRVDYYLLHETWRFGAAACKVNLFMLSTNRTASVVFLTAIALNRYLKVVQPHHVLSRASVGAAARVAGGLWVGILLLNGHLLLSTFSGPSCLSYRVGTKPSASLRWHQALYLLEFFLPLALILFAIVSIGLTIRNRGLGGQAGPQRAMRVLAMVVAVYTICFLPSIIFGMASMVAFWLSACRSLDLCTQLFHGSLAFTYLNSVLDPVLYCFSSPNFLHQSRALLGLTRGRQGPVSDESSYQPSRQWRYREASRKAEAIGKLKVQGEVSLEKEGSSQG
Test: cell-based
pEC50: −log10 of the molar value.
assay_endpoint: pEC50

[[record]]
compound = "CCCCC/C=C\\C/C=C\\C/C=C\\C=C\\C(=O)CCCC(=O)O [5-OxoETE]"
value_measured = 6.16


====

Molecular target: GPR119 (Homo sapiens)
Sequence (Q8TDV5 whole entry): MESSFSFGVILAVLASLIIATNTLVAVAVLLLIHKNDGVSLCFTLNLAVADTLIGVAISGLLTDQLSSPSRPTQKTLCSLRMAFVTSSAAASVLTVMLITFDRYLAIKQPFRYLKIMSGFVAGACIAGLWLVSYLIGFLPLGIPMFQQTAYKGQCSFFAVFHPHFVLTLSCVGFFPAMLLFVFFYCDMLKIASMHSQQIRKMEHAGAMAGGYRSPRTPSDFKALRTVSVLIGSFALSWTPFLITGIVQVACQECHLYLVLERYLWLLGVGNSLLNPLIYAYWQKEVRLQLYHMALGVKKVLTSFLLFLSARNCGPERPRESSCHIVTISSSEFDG
Assay: cell-based
pEC50: −log10 of the molar value.
assay_endpoint: pEC50

[[record]]
compound = "CCCCCCCC/C=C\\CCCCCCCC(=O)NCCO [Oleoyl Ethanolamide]"
value_measured = 5.76


====

Target: PTGIR (Homo sapiens, UniProt P43119)
Sequence (P43119 whole entry): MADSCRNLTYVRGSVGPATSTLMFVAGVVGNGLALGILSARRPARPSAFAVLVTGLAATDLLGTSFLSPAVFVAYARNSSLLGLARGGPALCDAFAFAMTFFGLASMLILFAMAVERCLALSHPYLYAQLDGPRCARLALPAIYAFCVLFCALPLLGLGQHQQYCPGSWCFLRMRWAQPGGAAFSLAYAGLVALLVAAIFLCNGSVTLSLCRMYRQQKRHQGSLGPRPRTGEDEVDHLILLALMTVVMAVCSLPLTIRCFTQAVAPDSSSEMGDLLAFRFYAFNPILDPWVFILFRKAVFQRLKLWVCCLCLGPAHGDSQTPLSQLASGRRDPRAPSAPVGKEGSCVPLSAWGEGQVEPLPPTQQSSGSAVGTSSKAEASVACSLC
Assay: cell-based
pEC50: −log10 of the molar value.
assay_endpoint: pEC50

[[record]]
compound = "CC#CCC(C)[C@H](O)/C=C/[C@@H]1[C@H]2c3cccc(CCCC(=O)O)c3O[C@H]2C[C@H]1O (mixture of isomers)"
measured_target = "PTGIR (Homo sapiens, UniProt P43119)"
value_measured = 6.51

